Each recorded value in this set is attributed to PubChem BioAssay (EPA / NIEHS).

read-out: xenobiotic metabolism (CYP1A1), CYP1A1 (gene 1543); experiment: CLD_CYP1A1_24hr: CellzDirect (CLD) Gene Expression Assay for xenobiotic metabolism (CYP1A1) at 24 hours (AID 2283673);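 note: CYP1A1 mRNA level by quantitative nuclease protection with chemiluminescence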
Results filed as inconclusive are left out. Activity calls are given as the source filed them. Rule for the calls: active = hit-call score of the fitted dose curve at least 0.9, where 1 is the maximum; inconclusive = response in the unintended direction; inactive = score below 0.9.
Outcomes: true for active, false for inactive

compound=COC(=O)c1ccc(I)cc1S(=O)(=O)NC(=O)Nc1nc(C)nc(OC)n1 assigned_class=false
compound=CCCN(CCC)C(=O)SCC assigned_class=false
compound=COC(=O)CSc1cc(N=c2sc(=O)n3n2CCCC3)c(F)cc1Cl assigned_class=false
compound=COC(=O)c1ccc(CNS(C)(=O)=O)cc1S(=O)(=O)NC(=O)Nc1nc(OC)cc(OC)n1 assigned_class=false
compound=O=C(Nc1ccc([N+](=O)[O-])cc1Cl)c1cc(Cl)ccc1O assigned_class=true
compound=CCOC(=O)[C@H](C)Oc1ccc(Oc2nc3ccc(Cl)cc3o2)cc1 assigned_class=false
compound="CCCCC(CC)CN1C(=O)C2C3C=CC(C3)C2C1=O (stereo not given)" assigned_class=true
compound=CCCCOCCOCCOCc1cc2c(cc1CCC)OCO2 assigned_class=true
compound=O=C(O)C1(C(=O)Nc2ccc(Cl)cc2Cl)CC1 assigned_class=false
compound=CSC(=O)c1cccc2nnsc12 assigned_class=true

---

Read-out: Heat shock 70 kDa protein 1 (HSPA1A), gene 3303
Assay: LTEA_HepaRG_HSPA1A: Life Technologies and Expression Analysis (LTEA) Assay for Heat shock 70 kDa protein 1 (HSPA1A) using HepaRG (AID 2283502)
Settings: mRNA level, 48 h; actives raise or lower the signal
Protocol: LTEA_HepaRG is a cell based, multiplexed-readout assay that uses HepaRG, a human liver cell line, with measurements taken at 48 hours after chemical dosing on a 96-well plate.LTEA_HepaRG_HSPA1A is one of 102 assay component(s) measured in the LTEA HepaRG cell culture assay. It is a marker of Oxidative Stress.Data from the assay component LTEA_HepaRG_HSPA1A was analyzed into 1 endpoint. […]
Active and inactive are the calls of the source. How the source made its calls: active means hit-call score of the fitted dose curve at least 0.9, where 1 is the maximum; inactive means score below 0.9.
Classes used: active, inactive

compound="C[C@]12CC[C@@H]3c4ccc(O)cc4C[C@@H](CCCCCCCCCS(=O)CCCC(F)(F)C(F)(F)F)[C@H]3[C@@H]1CC[C@@H]2O (stereo partly specified)" assigned_class=inactive
compound="C=CCOC(Cn1ccnc1)c1ccc(Cl)cc1Cl (stereo unspecified)" assigned_class=inactive
compound=CCOC(=O)c1ccc(O)cc1 assigned_class=inactive
compound=Oc1ccc(C(c2ccc(O)cc2)C(Cl)(Cl)Cl)cc1 assigned_class=active
compound=CCCOC(=O)c1ccc(C(=O)OCCC)nc1 assigned_class=inactive
compound="CCCCC(CC)COC(=O)c1ccccc1C(=O)O (stereo unspecified)" assigned_class=inactive

---

test system: TTR (gene 7276); test: CCTE_GLTED_hTTR_0.125uM: CCTE's human Transthyretin (hTTR) Inhibition Assay, with 0.125uM TTR, Great Lakes Toxicology and Ecology Division (GLTED) Lab (AID 2284431);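 note: hits lower the fluorescence signal relative to DMSO baseline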
The source made the active and inactive calls. How the source made its calls: active means hit-call score of the fitted dose curve at least 0.9, where 1 is the maximum; inactive means score below 0.9.
PROPERTY LABEL: AC50

smiles_notation=CC(C)(c1ccc(O)cc1)c1ccc(O)cc1 property_label=AC50 reported="7820 nM (active)"
smiles_notation=O=C(O)C1(C(=O)Nc2ccc(Cl)cc2Cl)CC1 property_label=AC50 reported="8060 nM (active)"
smiles_notation=O=C(Nc1ccc([N+](=O)[O-])cc1Cl)c1cc(Cl)ccc1O property_label=AC50 reported="633 nM (active)"
smiles_notation=COC(=O)c1ccc(I)cc1S(=O)(=O)NC(=O)Nc1nc(C)nc(OC)n1 property_label=AC50 reported="1800 nM (active)"
smiles_notation=CCCN(CCC)c1c([N+](=O)[O-])cc(C(F)(F)F)c(N)c1[N+](=O)[O-] property_label=AC50 reported="348 nM (active)"
